Details: in n-propanol, 288.15 K
Endpoint name: solubility (mole fraction)
Keep the answer to the number alone.

*Q* Which solubility (mole fraction) reading was recorded for the compound Cc1nc2n(c(=O)c1CCN1CCC(c3noc4cc(F)ccc34)CC1)CCCC2O (stereo unspecified) ?
*A* 7.03e-05

---

Details: in ethanol, 293.15 K
Endpoint name: solubility (mole fraction)
Please reply with the number alone, leaving off any unit.

*Q* Endpoint output: solubility (mole fraction) of Cc1nc2n(c(=O)c1CCN1CCC(c3noc4cc(F)ccc34)CC1)CCCC2O (stereo unspecified) . Value?
*A* 9.25e-05

---

Details: in n-pentanol, 293.15 K
Endpoint name: solubility (mole fraction)
Could you keep your reply to the number by itself?

*Q* Fill blank: measured solubility (mole fraction) of the molecule Cc1nc2n(c(=O)c1CCN1CCC(c3noc4cc(F)ccc34)CC1)CCCC2O (stereo unspecified) is ____.
*A* 0.000129

---

Details: in n-butyl acetate, 328.15 K
Endpoint name: solubility (mole fraction)
# respond with the number and nothing more

*Q* Please look up its solubility (mole fraction): Cc1nc2n(c(=O)c1CCN1CCC(c3noc4cc(F)ccc34)CC1)CCCC2O (stereo unspecified)
*A* 0.000692

---

Details: in n-propyl acetate, 313.15 K
Endpoint name: solubility (mole fraction)
Form rule: numeric answer, no unit written next to it.

*Q* For the compound Cc1nc2n(c(=O)c1CCN1CCC(c3noc4cc(F)ccc34)CC1)CCCC2O (stereo unspecified) , what solubility (mole fraction) is on record?
*A* 0.000294

---

Details: in methanol, 318.15 K
Endpoint name: solubility (mole fraction)
Returns: the value as a bare number; no unit string appended.

*Q* Which solubility (mole fraction) reading was recorded for the compound Cc1nc2n(c(=O)c1CCN1CCC(c3noc4cc(F)ccc34)CC1)CCCC2O (stereo unspecified) ?
*A* 0.000618

---

Details: in n-butyl acetate, 293.15 K
Endpoint name: solubility (mole fraction)
Just the number, please.

*Q* So what does the record say about solubility (mole fraction) for Cc1nc2n(c(=O)c1CCN1CCC(c3noc4cc(F)ccc34)CC1)CCCC2O (stereo unspecified) ?
*A* 7.43e-05

---

Details: in n-propyl acetate, 308.15 K
Endpoint name: solubility (mole fraction)
# output: bare number, no unit

*Q* Need solubility (mole fraction), item Cc1nc2n(c(=O)c1CCN1CCC(c3noc4cc(F)ccc34)CC1)CCCC2O (stereo unspecified)
*A* 0.000214

---

Details: in acetonitrile, 298.15 K
Endpoint name: solubility (mole fraction)
The answer should be written as a number, with no unit following it.

*Q* Any idea what its solubility (mole fraction) is? The compound is Cc1nc2n(c(=O)c1CCN1CCC(c3noc4cc(F)ccc34)CC1)CCCC2O (stereo unspecified)
*A* 5.16e-05

---

Details: in acetonitrile, 308.15 K
Endpoint name: solubility (mole fraction)

*Q* Any idea what solubility (mole fraction) was measured for Cc1nc2n(c(=O)c1CCN1CCC(c3noc4cc(F)ccc34)CC1)CCCC2O (stereo unspecified) ?
*A* 0.000101

---

Details: in n-propyl acetate, 303.15 K
Endpoint name: solubility (mole fraction)
Simply state the number, no unit and no words.

*Q* # query: solubility (mole fraction) of entry Cc1nc2n(c(=O)c1CCN1CCC(c3noc4cc(F)ccc34)CC1)CCCC2O (stereo unspecified)
*A* 0.000155
